biological target: U2AF65 1,2 (RRM1-RRM2, wild-type linker) (Homo sapiens, UniProt P26368 148-336); assay: SPR
Sequence (P26368 148-336, one chain of several): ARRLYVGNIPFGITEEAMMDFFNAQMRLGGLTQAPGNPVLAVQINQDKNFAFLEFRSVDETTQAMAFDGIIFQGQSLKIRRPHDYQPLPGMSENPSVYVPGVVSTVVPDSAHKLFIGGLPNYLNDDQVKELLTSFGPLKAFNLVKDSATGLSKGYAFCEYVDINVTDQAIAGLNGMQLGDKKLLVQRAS
readout-label: Kd (µM)
Please respond with the number in µM and leave the unit unwritten.

The binder listed as CCCUUUUUUUUCC (ssRNA) [rAdML13] has a reported Kd of 12.5
